Cited source: patent US6884882B1

# experiment: Observation of inner structures of gels by Scanning Electron Microscopy (SEM)
# Format: physicochemical
# recorded.conditions: gel prepared by the method of Example 2, lyophilized, platinum coated

structure.notation	gel structure in SEM image
CCCCc1ccc(Cn2cc(-c3cn([C@H]4C[C@H](O)[C@@H](CO)O4)c(=O)[nH]c3=O)nn2)cc1	lamellar structure
Cc1ccc(Cn2cc(-c3cn([C@H]4C[C@H](O)[C@@H](CO)O4)c(=O)[nH]c3=O)nn2)cc1	lamellar structure
O=c1[nH]c(=O)n([C@H]2C[C@H](O)[C@@H](CO)O2)cc1-c1cn(Cc2ccccc2)nn1	lamellar structure

====

# experiment: Gelation test (stable-to-inversion-of-the-container method) in water
# Format: physicochemical
# recorded.conditions: minimum concentration at which a gel was formed in water

structure.notation	Minimum gel concentration, wt %
CCc1ccccc1Cn1cc(-c2cn([C@H]3C[C@H](O)[C@@H](CO)O3)c(=O)[nH]c2=O)nn1	2
CCc1ccc(Cn2cc(-c3cn([C@H]4C[C@H](O)[C@@H](CO)O4)c(=O)[nH]c3=O)nn2)cc1	0.2
Cc1ccccc1Cn1cc(-c2cn([C@H]3C[C@H](O)[C@@H](CO)O3)c(=O)[nH]c2=O)nn1	3
Cc1ccc(Cn2cc(-c3cn([C@H]4C[C@H](O)[C@@H](CO)O4)c(=O)[nH]c3=O)nn2)cc1	0.6
O=c1[nH]c(=O)n([C@H]2C[C@H](O)[C@@H](CO)O2)cc1-c1cn(Cc2ccccc2)nn1	0.3
Cc1cccc(Cn2cc(-c3cn([C@H]4C[C@H](O)[C@@H](CO)O4)c(=O)[nH]c3=O)nn2)c1	1
CCCCc1ccc(Cn2cc(-c3cn([C@H]4C[C@H](O)[C@@H](CO)O4)c(=O)[nH]c3=O)nn2)cc1	0.8
